System: AMO1
Test: cells
Type: cell-based
Conditions: Homo sapiens, AMO1, read-out: IC50 (in vitro toxicity)
pIC50: −log10 of the molar value.
pIC50 values for the molecules below.

[
  {
    "smiles_str": "COc1ccc(N(CCCl)CCCl)cc1C[C@H](N)CC(=O)O",
    "tested_system": "AMO1",
    "pIC50": "< 4.00"
  },
  {
    "smiles_str": "Cc1ccc(N(CCCl)CCCl)cc1C[C@H](N)CC(=O)O",
    "tested_system": "AMO1",
    "pIC50": "< 4.00"
  },
  {
    "smiles_str": "COc1ccc(N(CCCl)CCCl)c(C[C@H](N)CC(=O)O)c1",
    "tested_system": "AMO1",
    "pIC50": "< 4.00"
  }
]
